Target: T1, recombinant human MCL-1ΔNΔC (amino acids 172-320) (human, UniProt Q07820 172-320)
T1 construct: also called rMCL-1; MCL-1NC
T1 sequence (Q07820 172-320 limits assumed, stated change not applied): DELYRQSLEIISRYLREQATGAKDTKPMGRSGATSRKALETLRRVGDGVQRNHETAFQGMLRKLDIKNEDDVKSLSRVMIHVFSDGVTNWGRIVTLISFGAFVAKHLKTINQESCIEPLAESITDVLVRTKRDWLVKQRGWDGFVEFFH
Experiment: competition FPA, FITC-BAK SAHB and MCL-1ΔNΔC with MCL-1 SAHBs as competitors
Bridges are numbered along the chain shown (N, C = ends). Where no end group is shown, it is not given here. [ ]: non-standard residue; d: D form. The star is where a group is joined. FITC = O=C1OC2(c3ccc(O)cc3Oc3cc(O)ccc32)c2ccc(NC(=S)*)cc21; S5 = C=CCCC[C@](C)(N)C(=O)O
Metric Name: IC50 (nM)
The answer is to be given in nM; state only the numeric part.

Enquiry: Could you share which IC50 value was measured for {FITC}-QVGRQLA[S5]IGD[S5]INRRYD (staple 8-12, also called FITC-BAK SAHB; BAK BH3 helix) [BAK SAHB] ?
Return: 270
